target: T1, purified interference factor(s) from Donor A (human); experiment: SPR, interference factor immobilized; % of Fig. 9 reference
T1 construct: also called interference in serum from Donor A
QUANTITY_MEASURED: interference binding, % of Reference Sequence (%)
Quick reminder: number only, in %, skip the unit.

Ask: Looking for the measured interference binding, % of Reference Sequence of SEQ ID NO: 88 (VHH) VHH: EVQLVESGGGSVQPGGSLRLSCAASRSIGRLDRMGWYRHRPGEPRELVATITGGSSINYGDSVKGRFTISIDNSKNTVYLQMNSLRPEDTAVYYCNFNKYVTSRDTWGQGTLVQVSS , can you help?
Result: 1

Ask: Looking for the measured interference binding, % of Reference Sequence of SEQ ID NO: 75 (VHH) VHH: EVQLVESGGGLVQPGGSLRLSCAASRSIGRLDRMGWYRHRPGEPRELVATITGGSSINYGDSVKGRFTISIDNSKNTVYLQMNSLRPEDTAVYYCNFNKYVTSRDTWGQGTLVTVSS , can you help?
Result: 1

Ask: Looking for the measured interference binding, % of Reference Sequence of SEQ ID NO: 68 (VHH) VHH: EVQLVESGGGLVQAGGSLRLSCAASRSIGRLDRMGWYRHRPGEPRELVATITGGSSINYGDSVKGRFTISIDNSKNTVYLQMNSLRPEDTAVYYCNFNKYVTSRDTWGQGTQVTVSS , can you help?
Result: 38

Ask: Looking for the measured interference binding, % of Reference Sequence of SEQ ID NO: 77 (VHH) VHH: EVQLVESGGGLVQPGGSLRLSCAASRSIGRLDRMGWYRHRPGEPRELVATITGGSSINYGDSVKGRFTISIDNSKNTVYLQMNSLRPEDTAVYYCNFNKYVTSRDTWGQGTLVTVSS , can you help?
Result: 2

Ask: Looking for the measured interference binding, % of Reference Sequence of SEQ ID NO: 47 (VHH) VHH: EVQLVESGGGLVQPGGSLRLSCAASGSVFKINVMAWYRQAPGKGRELVAGIISGGSTSYADSVKGRFTISRDNAKNTLYLQMNSLRPEDTAVYYCAFITTESDYDLGRRYWGQGTLVTVSS , can you help?
Result: 1

Ask: Looking for the measured interference binding, % of Reference Sequence of SEQ ID NO: 82 (VHH) VHH: EVQLVESGGGLVQPGGSLRLSCAASRSIGRLDRMGWYRHRPGEPRELVATITGGSSINYGDSVKGRFTISIDNSKNTVYLQMNSLRAEDTAVYYCNFNKYVTSRDTWGQGTLVTVSS , can you help?
Result: 96

Ask: Looking for the measured interference binding, % of Reference Sequence of SEQ ID NO: 73 (VHH) VHH: EVQLVESGGGLVQPGGSLRLSCAASRSIGRLDRMGWYRHRPGEPRELVATITGGSSINYGDSVKGRFTISIDNSKNTVYLQMNSLRPEDTAVYYCNFNKYVTSRDTWGQGTLVTVGG , can you help?
Result: 6
